The values you see were collected from patent US20160108027A1.

Biological target: thrombin (Homo sapiens, UniProt P00734)
Test: Measurement of the thrombin inhibition in buffer
Format: biochemical
Details: human thrombin 0.06 nmol/l in Tris buffer pH 7.4, 22° C., substrate Boc-Asp(OBzl)-Pro-Arg-AMC; in some cases means of individual determinations
Protocol: To determine the thrombin inhibition of the substances listed above, a biochemical test system is constructed in which the conversion of a thrombin substrate is used for determining the enzymatic activity of human thrombin. Here, thrombin cleaves aminomethylcoumarin, which is measured fluorescently, from the peptic substrate. The determinations are carried out in microtitre plates. […]
Below is a list of entries, each paired with its recorded pIC50 value.
Give only the number. pIC50 is defined as minus log10 of concentration in molar units.

COc1cc(C(=O)N2C[C@H](OC3CC3)C[C@H]2C(=O)N2CC(F)C2)cc2nc(NCc3cc(Cl)ccn3)oc12 ... 7.51
COc1cc(C(=O)N2CC(C)CCC2C2(O)CC2)cc2nc(NCc3cc(Cl)ccn3)oc12 (single isomer, unassigned) [Example 91] ... 7.89

Dear colleague, I am looking for the recorded pIC50 of the following compound: COc1cc(C(=O)N2CC(C)(C)OCC2(C)CO)cc2nc(NCc3cc(Cl)ccn3)oc12 (single isomer, unassigned) [Example 39]
7.96

----------
Below is a list of entries, each paired with its recorded pIC50 value.
Biological target: UniProtKB P00734
Experiment: Measurement of the thrombin inhibition in buffer
Format: biochemical
Conditions: human thrombin 0.06 nmol/l in Tris buffer pH 7.4, 22° C., substrate Boc-Asp(OBzl)-Pro-Arg-AMC; in some cases means of individual determinations
Give only the number. pIC50 is defined as minus log10 of concentration in molar units.

COc1cc(C(=O)N2CC(C)(C)OCC2(C)CO)cc2nc(NCc3cc(Cl)ccn3)oc12 (racemic) [Example 38] ... 7.89
COc1cc(C(=O)N2CC(C)(C)NC(=O)C2CC#N)cc2nc(NCc3cc(Cl)ccn3)oc12 (single isomer, unassigned) [Example 84] ... 7.96
COc1cc(C(=O)N2C[C@H](OC3CC3)C[C@H]2CO)cc2nc(NCc3cc(Cl)ccn3)oc12 ... 8.36
[2H]C([2H])(C)O[C@@H]1CC(CC#N)N(C(=O)c2cc(OC)c3oc(NCc4cc(Cl)ccn4)nc3c2)C1 (single isomer, unassigned) ... 8.01
COc1cc(C(=O)N2CC(C)NC(=O)C2CC#N)cc2nc(NCc3cc(Cl)ccn3)oc12 (single isomer, unassigned) ... 7.02
COc1cc(C(=O)N2CC(C)OCC2(C)CO)cc2nc(NCc3cc(Cl)ccn3)oc12 (single isomer, unassigned) [Example 19] ... 7.47
COc1cc(C(=O)N2CC(C)OCC2C(C)(C)O)cc2nc(NCc3cc(Cl)ccn3)oc12 (single isomer, unassigned) [Example 36] ... 7.41
COc1cc(C(=O)N2CC(C)OC[C@@H]2[C@@H](C)O)cc2nc(NCc3cc(Cl)ccn3)oc12 (stereo partly shown) ... 7.23
COc1cc(C(=O)N2CC(C)OCC2CCO)cc2nc(NCc3cc(Cl)ccn3)oc12 (single isomer, unassigned) [Example 72] ... 7.54
CCC1C(=O)N2CCC2CN1C(=O)c1cc(OC)c2oc(NCc3cc(Cl)ccn3)nc2c1 (stereo not shown) ... 7.29

Dear colleague, I am looking for the recorded pIC50 of the following compound: COc1cc(C(=O)N2CC(C)(CCO)OCC2CF)cc2nc(NCc3cc(Cl)ccn3)oc12 (stereo not shown)
8.00

Now this one: COc1cc(C(=O)N2CC(C)OCC2CC(C)O)cc2nc(NCc3cc(Cl)ccn3)oc12 (single isomer, unassigned) [Example 67]
7.80

Now this one: COc1cc(C(=O)N2CC(C)OCC2C2CC(O)C2)cc2nc(NCc3cc(Cl)ccn3)oc12 (single isomer, unassigned) [Example 51]
8.10

Now this one: COc1cc(C(=O)N2C[C@H](OC3CC3)C[C@H]2CO)cc2nc(NC(C)c3cc(Cl)ccn3)oc12 (single isomer, unassigned) [Example 15]
8.19

Now this one: CC[C@@H]1COC(C)(CCO)CN1C(=O)c1cc(OC)c2oc(NCc3cc(Cl)ccn3)nc2c1 (single isomer, unassigned) [Example 29]
8.72

Now this one: `COc1cc(C(=O)N2CC(C)(C)OC[C@H]2CCO)cc2nc(NCc3cc(Cl)ccn3)oc12`
7.77

Now this one: COc1cc(C(=O)N2CCCC2(C)C(=O)N2CCOCC2)cc2nc(NCc3cc(Cl)ccn3)oc12 (single isomer, unassigned)
7.77

Now this one: COc1cc(C(=O)N2CC(C)(CCO)OCC2(C)C)cc2nc(NCc3cc(Cl)ccn3)oc12 (racemic) [Example 32]
7.92

Now this one: COc1cc(C(=O)N2C[C@H](OC3CC3)C[C@H]2CO)cc2nc(NC(C)c3cc(Cl)ccn3)oc12 (stereo partly shown) [Example 13]
7.68

Now this one: COc1cc(C(=O)N2CC(C)(CC(C)O)OCC2(C)C)cc2nc(NCc3cc(Cl)ccn3)oc12 (racemic) [Example 34]
8.14

Now this one: COc1cc(C(=O)N2CC(C)OCC2C2CC(O)C2)cc2nc(NCc3cc(Cl)ccn3)oc12 (single isomer, unassigned) [Example 50]
7.92

Now this one: [2H]C([2H])(C)O[C@@H]1CC(CO)N(C(=O)c2cc(OC)c3oc(NC(C)c4cc(Cl)ccn4)nc3c2)C1 (single isomer, unassigned) [Example 8]
5.59
